B1: TOR1AIP2 (parent)
chain: DGAGRTWQDSDTVKLLVDLELSYG

- Variants of: B1
- assay comment: protein stability index of a GFP-peptide fusion (GPS, HEK-293T) (PSI 1-6); higher = more stable;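 note: lentivirally expressed fusions sorted by FACS into six bins by GFP to DsRed ratio, PSI derived from sequencing read proportions per bin multiplied by bin number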
- condition description: c terminus: a fixed tail appended
Listed below: protein stability index values for each entry.

alteration | protein stability index
V13R | 2.7

The recorded protein stability index for entry D11Q equals 3.09

The recorded protein stability index for entry L21H equals 2.84
